target: human cloned somatostatin receptor 3 (human) (UniProt P32745); test: 125I-Tyr11-SRIF-14 displacement
Sequence (P32745 whole entry): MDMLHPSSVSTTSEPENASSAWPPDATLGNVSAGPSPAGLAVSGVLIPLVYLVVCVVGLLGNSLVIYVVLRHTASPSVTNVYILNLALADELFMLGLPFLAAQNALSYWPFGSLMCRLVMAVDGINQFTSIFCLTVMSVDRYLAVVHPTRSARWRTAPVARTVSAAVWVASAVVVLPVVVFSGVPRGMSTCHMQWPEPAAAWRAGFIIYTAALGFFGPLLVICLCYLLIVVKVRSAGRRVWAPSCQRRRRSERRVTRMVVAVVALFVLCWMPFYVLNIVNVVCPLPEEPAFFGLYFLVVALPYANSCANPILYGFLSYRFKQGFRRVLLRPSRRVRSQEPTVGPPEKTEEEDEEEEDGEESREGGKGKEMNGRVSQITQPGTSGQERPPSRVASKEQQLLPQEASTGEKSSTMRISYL
*1 amine or outer side, *2 acyl side, *3 side chain or, on linkers, in order; H or OH if unused. Bridges are numbered along the chain shown (N, C = ends). Where no end group is shown, it is not given here. [ ]: non-standard residue; d: D form. The star is where a group is joined. DOTA = O=C(O)CN1CCN(CC(=O)O)CCN(CC(=O)*)CCN(CC(=O)O)CC1; N(2-mercaptoethyl)Gly = O=C(CN(CCS[*:3])[*:1])[*:2]; Orn = NCCC[C@H](N)C(=O)O; NTEG = not defined here; GABA = NCCCC(=O)O
Classify by measured % displacement at 1 nM: 1.0 if it is equal to or exceeds 50%, 0.0 if it is smaller.

{DOTA}-[dF]EE[Orn]CF[dW]KTF[N(2-mercaptoethyl)Gly]-NH2 (disulfide 5-11; SMILES C[C@@H](O)[C@@H]1NC(=O)[C@H](CCCCN)NC(=O)[C@@H](Cc2c[nH]c3ccccc23)NC(=O)[C@H](Cc2ccccc2)NC(=O)[C@@H](NC(=O)[C@H](CCCN)NC(=O)[C@H](CCC(=O)O)NC(=O)[C@H](CCC(=O)O)NC(=O)[C@@H](Cc2ccccc2)NC(=O)CN2CCN(CC(=O)O)CCN(CC(=O)O)CCN(CC(=O)O)CC2)CSSCCN(CC(N)=O)C(=O)[C@H](Cc2ccccc2)NC1=O) [SEQ ID NO: 22]
0.0
{DOTA}-[dF]KCF[dW]KTF[N(2-mercaptoethyl)Gly]-NH2 (disulfide 3-9; SMILES C[C@@H](O)[C@@H]1NC(=O)[C@H](CCCCN)NC(=O)[C@@H](Cc2c[nH]c3ccccc23)NC(=O)[C@H](Cc2ccccc2)NC(=O)[C@@H](NC(=O)[C@H](CCCCN)NC(=O)[C@@H](Cc2ccccc2)NC(=O)CN2CCN(CC(=O)O)CCN(CC(=O)O)CCN(CC(=O)O)CC2)CSSCCN(CC(N)=O)C(=O)[C@H](Cc2ccccc2)NC1=O) [SEQ ID NO: 9]
1.0
{DOTA}-[dF]KCF[dW]KTF[NTEG]-NH2 (disulfide 3-9; reading uncertain; also: Ga chelated by DOTA) [SEQ ID NO: 10]
0.0
K[dF]RCF[dW]KTF[N(2-mercaptoethyl)Gly]-NH2 (disulfide 4-10; not fully specified (residue 1, N-terminus); printed as (DOTA)2-Lys1-D-Phe2-Arg3-Cys4-Phe5-D-Trp6-Lys7-Thr8-Phe9-NTEG10-NH2 (cyclo 3-9); also: (DOTA)2 on Lys1, sites not given here) [SEQ ID NO: 16]
0.0

Here's the next entry for you.
In plain terms: is recorded % displacement at 1 nM at least 50% for {DOTA-GABA}-[dF]RCF[dW]KTF[N(2-mercaptoethyl)Gly]-NH2 (disulfide 3-9; also: Ga complex of DOTA) [SEQ ID NO: 8] ?
1.0
